# measured.target: human kinase Mps-1 (Homo sapiens)
# Construct: N-terminally GST-tagged human full length recombinant Mps-1 kinase
# Sequence (P33981 whole entry): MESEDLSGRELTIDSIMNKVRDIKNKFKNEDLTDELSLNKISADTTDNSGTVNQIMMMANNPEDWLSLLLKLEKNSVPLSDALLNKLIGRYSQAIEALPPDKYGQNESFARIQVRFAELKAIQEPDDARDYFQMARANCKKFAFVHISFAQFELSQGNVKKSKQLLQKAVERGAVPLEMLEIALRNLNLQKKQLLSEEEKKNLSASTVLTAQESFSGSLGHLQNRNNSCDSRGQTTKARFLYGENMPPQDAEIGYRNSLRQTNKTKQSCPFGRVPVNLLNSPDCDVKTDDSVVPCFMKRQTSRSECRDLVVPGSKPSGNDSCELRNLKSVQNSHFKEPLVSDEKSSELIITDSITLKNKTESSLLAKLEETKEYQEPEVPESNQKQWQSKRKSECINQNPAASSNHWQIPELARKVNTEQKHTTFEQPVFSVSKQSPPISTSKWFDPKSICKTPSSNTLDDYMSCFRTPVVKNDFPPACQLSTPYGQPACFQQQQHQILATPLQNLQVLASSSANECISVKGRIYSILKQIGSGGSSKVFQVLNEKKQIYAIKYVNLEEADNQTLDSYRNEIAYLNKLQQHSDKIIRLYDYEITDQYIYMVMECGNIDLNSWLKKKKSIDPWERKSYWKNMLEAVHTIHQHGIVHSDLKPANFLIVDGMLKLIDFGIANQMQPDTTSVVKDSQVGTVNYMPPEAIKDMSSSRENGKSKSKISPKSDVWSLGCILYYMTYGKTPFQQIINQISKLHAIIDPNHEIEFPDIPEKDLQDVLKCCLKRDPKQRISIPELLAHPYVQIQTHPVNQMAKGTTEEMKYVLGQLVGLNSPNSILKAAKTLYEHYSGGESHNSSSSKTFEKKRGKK
# protocol.description: Mps-1 kinase assay (HTRF)
# condition.summary: lowATP; mean; read-out: Mps1 lowATP mean IC50
pIC50: −log10 of the molar value.
readout.kind: pIC50

a. COc1ccccc1CNc1nc2ccccc2n2c(-c3ccc(C(=O)NC4CC4)cc3)cnc12 [Example 2-13]
b. Cc1cc2nc(NCCCO)c3ncc(-c4ccc(C(=O)NC5CC5)cc4)n3c2cc1C [Example 2-148]
c. CC(C)CNc1nc2ccccc2n2c(-c3cnn(C)c3)cnc12 [Example 1-18]
d. N#Cc1ccc2c(c1)nc(NCC(F)(F)F)c1ncc(-c3ccc(C(=O)NC4CC4)cc3)n12 [Example 2-209]
Parameters: sort_field (pIC50), sort_dir (desc). Write the labels, ordered according to the request. b, d, a, c
